meta.source: patent US20240043505A1

ELISA affinity by entry:
molecular target: SARS-CoV-2 spike receptor-binding domain (RBD) (SARS-CoV-2, UniProt P0DTC2 319-541); assay: indirect ELISA, RBD coated on plate, 4PL fit
# do not omit the unit; it follows the number

Take a look at these entries with their results.
Nb84 (VHH) VHH: DVQLVESGGGLVQAGGSLRLSCAASGRTFSSYSMGWFRQAPGKEREFVAFIRWSGTSTYYADSVKGRFTISRDNAKNTVYLQMNSLKPDDTAVYYCAASSRTMNTISQTMRINWDYWGQGTQVTVSS	0.53 nM
Nb99 (VHH) VHH: QVQLVESGGGLVQTGGSLRLSCAASGSTRSIWYSGWYRQAPGKQRELVASLTSGGTTYYPDSMKGRFTISGSSGLNMVYLQMNSLRPEDTAVYSCNVRTGSGVYWGQGTQVTVSS	0.35 nM
Nb96 (VHH) VHH: HVQLVESGGGLVQAGDSLRLSCAASGRDFSSYAMGWFRQAPGKEREFVGVISSGDVGTFYEDSVKGRFTISRDDAKNTVDLQMNSLKPEDTAVYYCAAALYVTSTRGSYAYWGQGTQVTVSS	0.04 nM
Nb12 (VHH) VHH: HVQLVESGGGLVQAGGSLRLTCAASGGTFSTSTMDMGWFRQAPGKEREFVAVDSWNDGRAYYADSVKGRFTISRDSAKTTLYLQMNSLKPEDTAVYYCAARTERGVYDYWGRGTQVTVSS	539 nM

Reported ELISA affinity ( Nb32 (VHH) VHH: DVQLVESGGGLVQAGGSLRLSCAASGRTFSSDTMDMGWFRQAPGKEREFVALHSWNGGKTYYADSVKGRFTISRDNAKNTLYLQMNNLKPEDTAVYYCAAETYTLYEKDSSWGYWGQGTQVTVSS ) = 2.17 nM

Reported ELISA affinity ( Nb34 (VHH) VHH: DVQLVESGGGLVQAGGSLRLSCAASGFTFSNYVMYWGRQAPGKGREWVSGIDSDGSDTAYASSVKGRFTISRDNAKNTLYLQMNNLKPEDTALYYCVKSKDPYGSPWTRSEFDDYWGQGTQVTVSS ) = 0.47 nM

Reported ELISA affinity ( Nb74 (VHH) VHH: HVQLVESGGGLVQAGGSLRLSCAASGRTFSSHAMAWFRQAPGKEREFVAGISWSGPYYVDSVKGRFTISTDNAKNTVYLQMNSLTPEDTAVYYCASSRGPNLYPHIGDVEYWGQGTQVTVSS ) = 67.1 nM

Reported ELISA affinity ( Nb41 (VHH) VHH: DVQLVESGGGLVQAGGSLRLSCAASGFTFSNYVMYWGRQAPGKGREWVSGIDSDGSDTAYASSVKGRFTISRDNAKKTLYLQMNDLKPEDTALYYCVKSKDRYGSPWTRSEFEDYWGQGTQVTVSS ) = 0.2 nM

Reported ELISA affinity ( Nb60 (VHH) VHH: HVQLVESGGGLVQAGDSLRLSCAASERTNINYAMGWFRQAPGKERDFVAAIGWNGSIIKYAESVKGRFTISRDDAKNTVSLQMNSLKPEDTAVYYCAARIGSIANLQPREYEFAYWGQGTQVTVSS ) = 138 nM

Reported ELISA affinity ( Nb11 (VHH) VHH: HVQLVESGGGLVQAGGSLRLSCAVSGASAERVGWFRRAPGKEREFVAAIGANGGSTNYLDSVKGRFTISRDNAKNTVYLQMNSLKPQDTAVYYCAARNLETFDYTYWGRGTQVTVSS ) = 0.39 nM

Reported ELISA affinity ( Nb43 (VHH) VHH: EVQLVESGGGLVQAGGSLRLTCAASGRTFSSSTMDMGWFRQAPGKEREFVAVDAWNDGRTYYADSVKGRFTISRDNAKNTLYLQMNSLKPEDTAIYYCNLRQGCSYNGCDEYWGQGTQVTVSS ) = 664 nM

Reported ELISA affinity ( Nb58 (VHH) VHH: QVQLVESGGGLVQAGGSLRLSCAASGRDFSSTVMGWFRQAPGKERELVAWMTVTYDITYYADSVKGRFTISKDNAKNTVYLQANSLKPDDTAVYYCASGALRVGSFSPDYWGQGTQVTVSS ) = 2.68 nM

Reported ELISA affinity ( Nb18 (VHH) VHH: DVQLVESGGGLVQAGGSLRLSCAASGRTFSSYNVGWFRQAPGKEREFVAFIRWSGTSTYYADSVKGRFTISRDNAKNTVYLQMNSLKPEDTAVYYCAATSRTMIHTSQAMPINWDYWGQGTQVTVSS ) = 0.57 nM

Reported ELISA affinity ( Nb6 (VHH) VHH: HVQLVESGGGLVQAGGSLRLSCAASGRTFSTHATGWFRQAPGKEREFLATSVWLDDISRDSTYYAESVKGRFSISRDNAKDTVYLQMNSLKPEDTAVYYCAVKQRVGPGIMSAPTYDYWGQGTQVTVSS ) = 0.57 nM

Reported ELISA affinity ( Nb97 (VHH) VHH: HVQLVESGGGLVQAGGSLRLSCAAPGRTFSTSAMGWFRQAPGKEREFVAAIDWSNTNIHYADTVKGRFTISTDTAKNTVYLQMNNLKPEDTAVYYCAQGGWGLTQPISVDYWGKGTQVTVSS ) = 0.32 nM
